Could you please report measured pIC50 for the items listed next?
- STUDY_SYSTEM: KRAS G12C (Homo sapiens, UniProt P01116, G12C)
- Sequence (P01116 1-188 isoform P01116-2 G12C): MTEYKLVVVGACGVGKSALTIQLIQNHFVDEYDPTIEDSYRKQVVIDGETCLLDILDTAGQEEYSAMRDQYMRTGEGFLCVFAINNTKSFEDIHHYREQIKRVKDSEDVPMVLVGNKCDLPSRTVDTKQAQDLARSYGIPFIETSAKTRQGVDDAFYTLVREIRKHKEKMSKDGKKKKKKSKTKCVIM
- EXPERIMENT: KRAS G12C GDP-GTP exchange assay (bodipy-GDP/GppNHp, SOS1)
- CONDITION_INFO: bodipy-loaded KRAS G12C 2.5 nM, 2 hours pre-incubation with inhibitor, 2 hours exchange; read-out: G12C_exchange (KRAS_G12C exchange assay IC50)
pIC50: −log10 of the molar value.

# input compound: C=CC(=O)N1CCC2(C1)Nc1c(cnc3c(F)c(-c4c(C)ccc5[nH]ncc45)c(Cl)cc13)NC2=O (racemic) ; wanted: its pIC50 5.30 to 6.00

Same question, C=CC(=O)N1CCC2(CC1)CC(=O)c1cnc3c(F)c(-c4cc(O)cc5ccccc45)c(Cl)cc3c1O2 this time 5.30 to 6.00

Same question, C=CC(=O)N1CCC2(CC1)Nc1c(c(OC[C@@H]3CCCN3C)nc3c(F)c(-c4c(O)cccc4F)c(Cl)cc13)NC2=O this time ≥ 7.00

Same question, C=CC(=O)N1CCC2(CC1)C(=O)Nc1c(OC[C@@H]3CCCN3C)nc3c(F)c(-c4cc(O)cc5ccccc45)c(Cl)cc3c12 this time ≥ 7.00

Same question, C=CC(=O)N1CCCC2(C1)C(=O)Nc1c(OC[C@@H]3CCCN3C)nc3c(F)c(-c4cc(O)cc5ccccc45)c(Cl)cc3c12 (mixture of isomers) this time 5.30 to 6.00

Same question, C=CC(=O)N1CCC2(CC1)Nc1c(cnc3c(F)c(-c4c(F)cccc4OC)c(Cl)cc13)NC2=O this time 5.30 to 6.00

Same question, C=CC(=O)N1CCC2(CC1)Nc1c(c(OC[C@@H]3CCCN3C)nc3c(F)c(-c4cc(O)cc5ccccc45)c(Cl)cc13)NC2=O this time ≥ 7.00

Same question, C=CC(=O)N1CCC2(CC1)Nc1c(cnc3c(F)c(-c4cccc5[nH]nc(C)c45)c(Cl)cc13)NC2=O this time 5.30 to 6.00

* * *

- STUDY_SYSTEM: KRAS G12D (Homo sapiens, UniProt P01116, G12D)
- Sequence (P01116 1-188 isoform P01116-2 G12D): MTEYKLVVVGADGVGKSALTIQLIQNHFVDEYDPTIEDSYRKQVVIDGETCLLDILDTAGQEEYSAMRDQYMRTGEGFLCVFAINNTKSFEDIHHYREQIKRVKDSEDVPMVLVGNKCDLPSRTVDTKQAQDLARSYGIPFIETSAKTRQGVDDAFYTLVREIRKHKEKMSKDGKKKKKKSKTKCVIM
- EXPERIMENT: KRAS G12D GDP-GTP exchange assay (bodipy-GDP/GppNHp, SOS1)
- CONDITION_INFO: bodipy loaded KRAS G12D 2.5 nM, 4 hours incubation after GppNHp-SOS1; read-out: G12D_exchange (KRAS_G12D exchange assay IC50)
pIC50: −log10 of the molar value.
PARAMETER: pIC50

# input compound: CN(C)C1CN(c2nc3c(F)c(-c4cc(O)cc5ccccc45)c(Cl)cc3c3c2NC(=O)C32CC(N)C2)C1 (stereo not drawn) ; wanted: its pIC50 4.30 to 5.30

Same question, CN1CCC[C@H]1COc1nc2c(F)c(-c3cc(O)cc4ccccc34)c(CCCC#N)cc2c2c1N(CC(N)=O)C(=O)C21CCCNC1 (single isomer, unassigned) [Example 37b] this time 5.30 to 6.00

Same question, CN(C)C1CN(c2nc3c(F)c(-c4cc(O)cc5ccccc45)c(Cc4ccccc4C#N)cc3c3c2NC(=O)C32CCCNC2)C1 (single isomer, unassigned) [Example 27b] this time 5.30 to 6.00

Same question, CN(C)C1CN(c2nc3c(F)c(-c4cc(O)cc5ccccc45)c(Cc4ccccc4Cl)cc3c3c2NC(=O)C32CCCNC2)C1 (single isomer, unassigned) [Example 26b] this time 5.30 to 6.00

Same question, CC(C)CCN1C(=O)C2(CCCNC2)c2c1c(OC[C@@H]1CCCN1C)nc1c(F)c(-c3cc(O)cc4ccccc34)c(CCCC#N)cc21 (single isomer, unassigned) [Example 35a] this time ≥ 7.00

Same question, CN(C)C1CN(c2nc3c(F)c(-c4cc(O)cc5ccccc45)c(CCCC#N)cc3c3c2NCC32CCCNC2)C1 (single isomer, unassigned) [Example 28b] this time 5.30 to 6.00
